experiment: Dabrafenib pharmacokinetics in 8HUM mice: effect of rifampicin and ketoconazole; format: in vivo, mouse; conditions: female, 8HUM, mouse, whole blood, po, 10 mg/kg, female 8HUM mice, dabrafenib 10 mg/kg PO; Vehicle (corn oil) pretreatment; read-out: AUC0 t
EXPERIMENTAL_ENDPOINT: AUC
Please report the result as a number followed by the unit.

Determine from records and report AUC for CC(C)(C)c1nc(-c2cccc(NS(=O)(=O)c3c(F)cccc3F)c2F)c(-c2ccnc(N)n2)s1
21900 ng·h/mL

----------
assay: Osimertinib pharmacokinetics in 8HUM mice: effect of rifampicin and β-naphthoflavone; conditions: female, mouse, in vivo, po, 25 mg/kg, female 8HUM mice, osimertinib 25 mg/kg oral, RIF + BNF 80 mg/kg i.p. daily 3 days
EXPERIMENTAL_ENDPOINT: Cmax (ng/mL)
Field format: number, assumed ng/mL, no unit text.

Annotate the compound C=CC(=O)Nc1cc(Nc2nccc(-c3cn(C)c4ccccc34)n2)c(OC)cc1N(C)CCN(C)C with its measured Cmax.
71

----------
experiment: Osimertinib pharmacokinetics in 8HUM mice: effect of rifampicin and β-naphthoflavone; conditions: female, mouse, in vivo, po, 25 mg/kg, female 8HUM mice, osimertinib 25 mg/kg oral, Control (normal RM1 diet)
EXPERIMENTAL_ENDPOINT: AUC (ng·h/mL)
Just the number please, in ng·h/mL, no unit attached.

Provide AUC value for the following molecule: C=CC(=O)Nc1cc(Nc2nccc(-c3cn(C)c4ccccc34)n2)c(OC)cc1N(C)CCN(C)C
3750

----------
experiment: Dabrafenib pharmacokinetics in 8HUM mice: effect of rifampicin and ketoconazole; type: in vivo, mouse; conditions: female, 8HUM, mouse, whole blood, po, 10 mg/kg, female 8HUM mice, dabrafenib 10 mg/kg PO; Vehicle (corn oil) pretreatment
EXPERIMENTAL_ENDPOINT: half-life (h)
Give just the number in h; leave the unit off.

# return recorded half-life for input CC(C)(C)c1nc(-c2cccc(NS(=O)(=O)c3c(F)cccc3F)c2F)c(-c2ccnc(N)n2)s1 [dabrafenib]
2.6

----------
tested on: CYP2D6; experiment: Kinetic parameters of 4-hydroxyl debrisoquine formation in liver microsomes (HLM, 8HUM); assay type: in vitro ADME; settings: pH 7.4; pooled human liver microsomes (HLM)
EXPERIMENTAL_ENDPOINT: Km at 40 min
Give the value; after it, write the unit.

Dear colleague, please send me the reported Km at 40 min for N=C(N)N1CCc2ccccc2C1 when you can.
25 µM

----------
experiment: Dabrafenib pharmacokinetics in 8HUM mice: effect of rifampicin and ketoconazole; assay type: in vivo, mouse; conditions: female, 8HUM, mouse, whole blood, po, 10 mg/kg, female 8HUM mice, dabrafenib 10 mg/kg PO; Rifampicin 10 mg/kg i.p. daily for 3 days; read-out: AUC0 t
EXPERIMENTAL_ENDPOINT: AUC (ng·h/mL)
Report the value in ng·h/mL with no unit label.

Consider the compound CC(C)(C)c1nc(-c2cccc(NS(=O)(=O)c3c(F)cccc3F)c2F)c(-c2ccnc(N)n2)s1 [dabrafenib] and give its recorded AUC.
6150

----------
experiment: Osimertinib pharmacokinetics in 8HUM mice: effect of rifampicin and β-naphthoflavone; conditions: female, mouse, in vivo, po, 25 mg/kg, female 8HUM mice, osimertinib 25 mg/kg oral, Control (normal RM1 diet)
EXPERIMENTAL_ENDPOINT: Cmax (ng/mL)
Give just the number in ng/mL; leave the unit off.

Read the entry C=CC(=O)Nc1cc(Nc2nccc(-c3cn(C)c4ccccc34)n2)c(OC)cc1N(C)CCN(C)C and write its reported Cmax.
199

----------
test: Dabrafenib pharmacokinetics in 8HUM mice: effect of rifampicin and ketoconazole; assay type: in vivo, mouse; conditions: female, 8HUM, mouse, whole blood, po, 10 mg/kg, female 8HUM mice, dabrafenib 10 mg/kg PO; Rifampicin + ketoconazole 20 mg/kg PO 30 minutes before
EXPERIMENTAL_ENDPOINT: half-life (h)
Quick note: give the figure in h, leave out the unit.

Answer with the recorded half-life of CC(C)(C)c1nc(-c2cccc(NS(=O)(=O)c3c(F)cccc3F)c2F)c(-c2ccnc(N)n2)s1 only.
1.8

----------
experiment: Osimertinib pharmacokinetics in 8HUM mice: effect of rifampicin and β-naphthoflavone; details: female, mouse, in vivo, po, 25 mg/kg, 8HUM mice, osimertinib 25 mg/kg by oral gavage
EXPERIMENTAL_ENDPOINT: half-life (h)
Lab book: enter the figure in h, no units written.

State, in one line, measured half-life of C=CC(=O)Nc1cc(Nc2nccc(-c3cn(C)c4ccccc34)n2)c(OC)cc1N(C)CCN(C)C
20

----------
assay: Dabrafenib pharmacokinetics in 8HUM mice: effect of rifampicin and ketoconazole; type: in vivo, mouse; settings: female, 8HUM, mouse, whole blood, po, 10 mg/kg, female 8HUM mice, dabrafenib 10 mg/kg PO; Vehicle (corn oil) pretreatment
EXPERIMENTAL_ENDPOINT: Cmax (ng/mL)
A number alone suffices; assume ng/mL.

Give the measured Cmax for CC(C)(C)c1nc(-c2cccc(NS(=O)(=O)c3c(F)cccc3F)c2F)c(-c2ccnc(N)n2)s1
3740

----------
assay: Pharmacokinetics of cassette-dosed probe drugs in 8HUM mice with or without rifampicin pretreatment; conditions: female, mouse, in vivo, po, AUCall, female 8HUM mice, vehicle (corn oil) i.p. pretreatment, oral cassette: caffeine, debrisoquine, tolbutamide 5 mg/kg, midazolam 3 mg/kg
EXPERIMENTAL_ENDPOINT: AUC (ng·h/mL)
Supply the numeric figure in ng·h/mL, leaving out any unit text.

For Cc1ncc2n1-c1ccc(Cl)cc1C(c1ccccc1F)=NC2 , write its AUC.
860

----------
experiment: Dabrafenib pharmacokinetics in 8HUM mice: effect of rifampicin and ketoconazole; format: in vivo, mouse; conditions: female, 8HUM, mouse, whole blood, po, 10 mg/kg, female 8HUM mice, dabrafenib 10 mg/kg PO; Rifampicin + ketoconazole 20 mg/kg PO 30 minutes before
EXPERIMENTAL_ENDPOINT: Cmax (ng/mL)
State just the number; it will be interpreted in ng/mL.

Name the recorded Cmax of the compound listed here: CC(C)(C)c1nc(-c2cccc(NS(=O)(=O)c3c(F)cccc3F)c2F)c(-c2ccnc(N)n2)s1
3650

----------
assay: Dabrafenib pharmacokinetics in 8HUM mice: effect of rifampicin and ketoconazole; format: in vivo, mouse; conditions: female, 8HUM, mouse, whole blood, po, 10 mg/kg, female 8HUM mice, dabrafenib 10 mg/kg PO; Rifampicin 10 mg/kg i.p. daily for 3 days
EXPERIMENTAL_ENDPOINT: Cmax (ng/mL)
API: value field is a number in ng/mL; no unit string.

Please supply the value of reported Cmax for the item CC(C)(C)c1nc(-c2cccc(NS(=O)(=O)c3c(F)cccc3F)c2F)c(-c2ccnc(N)n2)s1
1740

----------
test: Pharmacokinetics of cassette-dosed probe drugs in 8HUM mice with or without rifampicin pretreatment; conditions: female, mouse, in vivo, po, AUCall, female 8HUM mice, rifampicin 10 mg/kg i.p. daily for 2 days pretreatment, oral cassette: caffeine, debrisoquine, tolbutamide 5 mg/kg, midazolam 3 mg/kg
EXPERIMENTAL_ENDPOINT: AUC
Kindly report the value followed by its unit.

Provide one value: measured AUC of Cc1ncc2n1-c1ccc(Cl)cc1C(c1ccccc1F)=NC2 [Midazolam, midazolam]
68.8 ng·h/mL

----------
biological target: CYP1A2 (Homo sapiens); assay: in vitro; details: 8HUM, mouse, microsomes, pH 7.4, Inhibition of 7-methoxyresorufin metabolism
Sequence (P05177 whole entry): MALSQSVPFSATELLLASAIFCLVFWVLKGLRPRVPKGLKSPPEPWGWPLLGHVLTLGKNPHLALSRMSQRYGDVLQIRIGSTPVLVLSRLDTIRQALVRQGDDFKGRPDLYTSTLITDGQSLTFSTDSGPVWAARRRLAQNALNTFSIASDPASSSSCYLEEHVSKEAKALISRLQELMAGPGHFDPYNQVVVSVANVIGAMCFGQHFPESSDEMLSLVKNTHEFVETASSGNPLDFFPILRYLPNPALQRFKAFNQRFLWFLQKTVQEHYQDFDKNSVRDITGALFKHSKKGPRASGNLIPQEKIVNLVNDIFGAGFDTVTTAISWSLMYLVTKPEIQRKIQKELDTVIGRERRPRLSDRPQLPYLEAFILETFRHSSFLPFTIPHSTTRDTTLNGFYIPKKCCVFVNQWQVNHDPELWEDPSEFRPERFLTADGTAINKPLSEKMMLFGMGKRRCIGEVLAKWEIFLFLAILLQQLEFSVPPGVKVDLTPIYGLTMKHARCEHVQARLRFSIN
EXPERIMENTAL_ENDPOINT: inhibition at 3.33 μM (%)
Form entry: value (%) — number only.

Read off the recorded inhibition at 3.33 μM for O=c1cc(-c2ccccc2)oc2c1ccc1ccccc12
75

----------
biological target: CYP3A4 (Homo sapiens, UniProt P08684); construct: pooled rifampicin-treated male and female 8HUM mice (8HUM) or pooled human liver microsomes (HLM); host or cells: liver microsomes: pooled human liver; liver of 8HUM mice carrying human CYP3A4/CYP3A7 under the human promoter; experiment: Kinetic parameters of 1-hydroxyl midazolam formation in liver microsomes (HLM, 8HUM); type: in vitro ADME; conditions: human, pooled human liver microsomes, pH 7.4
Sequence (P08684 whole entry): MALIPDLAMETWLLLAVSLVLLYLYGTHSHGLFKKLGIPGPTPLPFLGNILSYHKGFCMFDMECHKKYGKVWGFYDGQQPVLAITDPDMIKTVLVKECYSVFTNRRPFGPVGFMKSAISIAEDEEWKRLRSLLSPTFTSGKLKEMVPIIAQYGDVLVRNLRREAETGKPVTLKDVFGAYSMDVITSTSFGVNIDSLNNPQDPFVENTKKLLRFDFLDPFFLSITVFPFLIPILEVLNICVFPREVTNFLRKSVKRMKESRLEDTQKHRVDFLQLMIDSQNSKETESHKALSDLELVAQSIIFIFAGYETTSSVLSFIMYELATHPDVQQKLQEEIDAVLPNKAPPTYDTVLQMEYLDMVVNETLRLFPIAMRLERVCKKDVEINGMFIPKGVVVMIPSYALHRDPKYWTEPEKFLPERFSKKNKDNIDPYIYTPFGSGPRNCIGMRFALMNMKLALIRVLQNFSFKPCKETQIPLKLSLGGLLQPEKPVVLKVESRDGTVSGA
EXPERIMENTAL_ENDPOINT: Km at 2 min

Please look at Cc1ncc2n1-c1ccc(Cl)cc1C(c1ccccc1F)=NC2 and tell me its recorded Km at 2 min on CYP3A4 (Homo sapiens, UniProt P08684).
0.73 µM

----------
experiment: Osimertinib pharmacokinetics in 8HUM mice: effect of rifampicin and β-naphthoflavone; conditions: female, mouse, in vivo, po, 25 mg/kg, female 8HUM mice, osimertinib 25 mg/kg oral, RIF in diet (equivalent 10 mg/kg) 3 days
EXPERIMENTAL_ENDPOINT: AUC (ng·h/mL)
Please reply with the bare figure in ng·h/mL and do not write the unit itself.

Given C=CC(=O)Nc1cc(Nc2nccc(-c3cn(C)c4ccccc34)n2)c(OC)cc1N(C)CCN(C)C , respond with its AUC.
2140

----------
test: Dabrafenib pharmacokinetics in 8HUM mice: effect of rifampicin and ketoconazole; type: in vivo, mouse; conditions: female, 8HUM, mouse, whole blood, po, 10 mg/kg, female 8HUM mice, dabrafenib 10 mg/kg PO; Rifampicin 10 mg/kg i.p. daily for 3 days
EXPERIMENTAL_ENDPOINT: half-life
Record the result as number plus unit.

For CC(C)(C)c1nc(-c2cccc(NS(=O)(=O)c3c(F)cccc3F)c2F)c(-c2ccnc(N)n2)s1 , write its half-life.
1.4 h
